Kindly state GI50 for each of the entries shown.
Tested on: MCF7 breast
Test: NCI tumour cell line growth inhibition, 48 h

Consider the compound `COC(=O)[C@]12CC[C@@H](C)[C@H](C)[C@@H]1C1=CC[C@@H]3[C@@]4(C)C[C@@H](OC(C)=O)[C@H](OC(C)=O)[C@@](C)(COC(C)=O)[C@@H]4[C@H](O)C[C@@]3(C)[C@]1(C)CC2` . State its measured GI50. 1570 nM

Consider the compound `ClC/C=C/CSc1ncnc2nc[nH]c12` . State its measured GI50. > 100000 nM

Consider the compound `COc1cccc(/C=C\C(=O)c2ccccc2)c1` . State its measured GI50. 2570 nM

Consider the compound `NS(=O)(=O)c1cccc(Nc2cc(-c3ccc(F)cc3)[nH]n2)c1` . State its measured GI50. 20400 nM
